- Measured on: human V1a receptor (Homo sapiens, UniProt P37288)
- Construct: expressed in transfected cells; host or cells: CHO K1 (ATCC), also stably transfected with a modified aequorin
- Sequence (P37288 whole entry): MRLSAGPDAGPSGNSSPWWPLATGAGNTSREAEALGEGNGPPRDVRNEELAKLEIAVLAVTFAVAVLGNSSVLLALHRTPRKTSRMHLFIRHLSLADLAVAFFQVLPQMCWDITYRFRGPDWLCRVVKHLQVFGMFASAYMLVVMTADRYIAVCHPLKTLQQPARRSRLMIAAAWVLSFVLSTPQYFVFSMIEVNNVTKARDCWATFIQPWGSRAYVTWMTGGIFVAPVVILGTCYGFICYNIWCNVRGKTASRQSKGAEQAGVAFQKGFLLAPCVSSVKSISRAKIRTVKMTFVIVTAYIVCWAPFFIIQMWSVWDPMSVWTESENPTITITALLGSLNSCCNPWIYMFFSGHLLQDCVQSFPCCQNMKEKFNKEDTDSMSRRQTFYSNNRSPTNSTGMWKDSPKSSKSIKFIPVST
- Experiment: Cellular in vitro assay for determining vasopressin receptor activity, V1a receptor cell line (CHO, aequorin luminescence)
- Assay type: cell-based
- Experimental setup: selectivity ratio IC50 hV2 / IC50 hV1a
Measured quantity: ratio IC50 hV2/hV1a
Hey, just send me the number, nothing else.

Give recorded ratio IC50 hV2/hV1a with human V1a receptor (Homo sapiens, UniProt P37288) for the following compound: NC(=O)[C@@H]1CC(F)(F)CN1C(=O)c1ncccc1-n1cnc(Cn2nc(-c3ccc(Cl)cc3)n(C[C@H](O)C(F)(F)F)c2=O)n1 [Example 434] 32.9

So what ratio IC50 hV2/hV1a did CCn1nccc1C(=O)Nc1ncccc1-n1cnc(Cn2nc(-c3ccc(Cl)cc3)n(C[C@H](O)C(F)(F)F)c2=O)n1 [Example 111] get with human V1a receptor (Homo sapiens, UniProt P37288)? 276.6

// lookup ratio IC50 hV2/hV1a | system=human V1a receptor (Homo sapiens, UniProt P37288) | key= O=C(NCC(F)(F)F)c1cccnc1-n1cnc(Cn2nc(-c3ccc(Cl)cc3)n(C[C@H](O)C(F)(F)F)c2=O)n1 [Example 494] 5.3

Can you look up ratio IC50 hV2/hV1a on human V1a receptor (Homo sapiens, UniProt P37288) for O=C(NC1CC1F)c1ncccc1-n1cnc(Cn2nc(-c3ccc(Cl)cc3)n(C[C@@H](O)C(F)(F)F)c2=O)n1 (stereo partly drawn) [Example 462] ? 61.3

// fetch human V1a receptor (Homo sapiens, UniProt P37288) ratio IC50 hV2/hV1a for O=C(c1ccccc1-n1cnc(Cn2nc(-c3ccc(Cl)cc3)n(C[C@H](O)C(F)(F)F)c2=O)n1)N1CCC(O)C1 (mixture of isomers) [Example 298] 468.2

Any idea what ratio IC50 hV2/hV1a came out for O=C(NC1CC1)c1ccccc1-n1cnc(Cn2nc(-c3ccc(Cl)cc3)n(C[C@H](O)C(F)(F)F)c2=O)n1 [Example 340] on human V1a receptor (Homo sapiens, UniProt P37288)? 45.9

Identify the measured ratio IC50 hV2/hV1a of O=C(c1ncccc1-n1cnc(Cn2nc(-c3ccc(Cl)cc3)n(C[C@H](O)C(F)(F)F)c2=O)n1)N1CCC(O)(C(F)(F)F)C1 (mixture of isomers) [Example 442] for human V1a receptor (Homo sapiens, UniProt P37288). 24.5

Provide the documented ratio IC50 hV2/hV1a with human V1a receptor (Homo sapiens, UniProt P37288) as the system for O=C(NC1(C(F)(F)F)CC1)c1ncccc1-n1cnc(Cn2nc(-c3ccc(Cl)cc3)n(C[C@@H](O)C(F)(F)F)c2=O)n1 [Example 473] 19.6

Enter reported ratio IC50 hV2/hV1a observed with human V1a receptor (Homo sapiens, UniProt P37288) for NC(CNC(=O)c1cccc(Cl)c1-n1cnc(Cn2nc(-c3ccc(Cl)cc3)n(C[C@H](O)C(F)(F)F)c2=O)n1)C(F)(F)F (mixture of isomers) [Example 390] 7.7

Hi! What's the reported ratio IC50 hV2/hV1a for CC1(NC(=O)c2cccnc2-n2nc(Cn3nc(-c4ccc(Cl)cc4)n(C[C@H](O)C(F)(F)F)c3=O)nc2C(=O)N2CCS(=O)(=O)CC2)CC1 [Example 531] on human V1a receptor (Homo sapiens, UniProt P37288)? 29.5

Kindly state the measured ratio IC50 hV2/hV1a obtained for Cc1cccc(C(=O)Nc2ncccc2-n2cnc(Cn3nc(-c4ccc(Cl)cc4)n(C[C@H](O)C(F)(F)F)c3=O)n2)c1 [Example 162] with human V1a receptor (Homo sapiens, UniProt P37288). 24.0

Lab note: need ratio IC50 hV2/hV1a for CC1COCCN1C(=O)c1ccccc1-n1cnc(Cn2nc(-c3ccc(Cl)cc3)n(C[C@H](O)C(F)(F)F)c2=O)n1 (mixture of isomers) [Example 282] on human V1a receptor (Homo sapiens, UniProt P37288), anyone have it? 1000.0
